// data source = patent US9150566B2

# measuredOn: human orexin-2 receptor (Homo sapiens (Human), UniProt O43614)
# Sequence (O43614 whole entry): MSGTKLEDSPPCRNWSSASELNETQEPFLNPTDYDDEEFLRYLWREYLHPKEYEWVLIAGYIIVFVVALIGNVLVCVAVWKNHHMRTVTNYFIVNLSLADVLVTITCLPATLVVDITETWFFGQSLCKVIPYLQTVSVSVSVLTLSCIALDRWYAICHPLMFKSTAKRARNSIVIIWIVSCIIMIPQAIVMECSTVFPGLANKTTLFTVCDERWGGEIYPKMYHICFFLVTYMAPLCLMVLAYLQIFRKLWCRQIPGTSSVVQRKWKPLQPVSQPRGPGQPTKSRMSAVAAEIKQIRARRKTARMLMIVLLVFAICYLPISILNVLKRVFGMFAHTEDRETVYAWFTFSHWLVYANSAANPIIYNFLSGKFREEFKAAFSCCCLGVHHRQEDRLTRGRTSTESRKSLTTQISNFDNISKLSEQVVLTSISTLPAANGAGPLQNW
# protocol: In vitro intracellular calcium measurements (FLIPR), antagonistic activity on orexin-2 receptor
# Assay type: cell-based
# conditionParameters: read-out: IC50 OX2
Response field label takes t when IC50 is strictly below 900 nM and f in all other cases.

These recorded examples may help you get a feel for the data.
COc1ccc(-n2nccn2)c(C(=O)N2CCOC[C@H]2Cc2cccc(-n3nccn3)c2)c1 t
Cc1ccc(C(=O)N2CCOC[C@H]2Cc2cc(-n3nccn3)ccc2C)c(-n2nccn2)c1 f
Cc1ccc(C(=O)N2CCOC[C@H]2Cc2cccc(-n3nccn3)c2F)c(-n2nccn2)c1 f
Cc1ccc(C(=O)N2CCOC[C@H]2Cc2cc(-n3nccn3)ccc2Cl)c(-n2nccn2)c1 t
Cc1ccc(-n2nccn2)c(C(=O)N2CCOC[C@H]2Cc2cccc(-n3nccn3)c2)c1 t

Task item: hey, is IC50 for "Cc1ccc(C(=O)N2CCOC[C@H]2Cc2ccc(C)c(-n3nccn3)c2)c(-n2nccn2)c1" lower than 900 nM or not?
Reply: t

Task item: hey, is IC50 for "Cc1ccc(C(=O)N2CCOC[C@H]2Cc2cccc(-n3nccn3)c2)c(-n2nccn2)c1C" lower than 900 nM or not?
Reply: f

Task item: hey, is IC50 for "Cc1ccc(C(=O)N2CCOC[C@H]2Cc2cccc(-n3nccn3)c2)c(-n2nccn2)c1" lower than 900 nM or not?
Reply: t

Task item: hey, is IC50 for "Cc1ccc(C(=O)N2[C@H](Cc3cccc(-n4nccn4)c3)COC[C@@H]2C)c(-n2nccn2)c1" lower than 900 nM or not?
Reply: f

Task item: hey, is IC50 for "Cc1ccc(C(=O)N2C[C@H](C)OC[C@H]2Cc2cccc(-n3nccn3)c2)c(-n2nccn2)c1" lower than 900 nM or not?
Reply: t

Task item: hey, is IC50 for "Cc1ccc(C(=O)N2C[C@@H](C)OC[C@H]2Cc2cccc(-n3nccn3)c2)c(-n2nccn2)c1" lower than 900 nM or not?
Reply: t

Task item: hey, is IC50 for "Cc1ccc(C(=O)N2[C@H](Cc3cccc(-n4nccn4)c3)COC[C@H]2C)c(-n2nccn2)c1" lower than 900 nM or not?
Reply: t

Task item: hey, is IC50 for "COc1ccc(C(=O)N2CCOC[C@H]2Cc2cccc(-n3nccn3)c2)c(-n2nccn2)c1" lower than 900 nM or not?
Reply: f

* * *

# measuredOn: human orexin-2 receptor (Homo sapiens (Human), UniProt O43614)
# protocol: In vitro intracellular calcium measurements (FLIPR), antagonistic activity on orexin-2 receptor
# Type: cell-based
# conditionParameters: CHO cells expressing human orexin-2 receptor; FLIPR; 3 nM orexin-A agonist; 120 min antagonist incubation; geometric mean if determined several times; read-out: IC50 OX2
measuredProperty: IC50
Please don't drop the unit; write it after the number.

compound	measuredOn	val
O=C(c1ccccc1-n1nccn1)N1CCOC[C@H]1Cc1cccc(-c2cccnn2)c1 [Example 48]	human orexin-2 receptor (Homo sapiens (Human), UniProt O43614)	4440 nM
O=C(c1cc(Cl)ccc1-n1nccn1)N1CCOC[C@H]1Cc1cc(-c2ncon2)ccc1F [Example 176]	human orexin-2 receptor (Homo sapiens (Human), UniProt O43614)	240 nM
Cc1ccc(C(=O)N2CCOC[C@H]2Cc2cccc(-n3cccn3)c2)c(-n2nccn2)c1 [Example 22]	human orexin-2 receptor (Homo sapiens (Human), UniProt O43614)	318 nM
O=C(c1cc(F)ccc1-n1nccn1)N1CCOC[C@H]1Cc1cccc(-n2cccn2)c1 [Example 20]	human orexin-2 receptor (Homo sapiens (Human), UniProt O43614)	1530 nM

// field: IC50; key: Cc1ccc(C(=O)N2CCOC[C@H]2Cc2cc(F)cc(-n3nccn3)c2)c(-n2nccn2)c1 [Example 146] ; value = 282 nM

// field: IC50; key: Cc1ccc(-n2nccn2)c(C(=O)N2CCOC[C@H]2Cc2cc(-n3nccn3)ccc2C)c1 [Example 119] ; value = 593 nM

// field: IC50; key: Cc1ccc(-n2nccn2)c(C(=O)N2CCOC[C@H]2Cc2cc(-c3ncon3)ccc2F)c1 [Example 174] ; value = 642 nM

// field: IC50; key: Cc1ccc(-n2nccn2)c(C(=O)N2CCOC[C@H]2Cc2cccc(-c3ccncc3)c2)c1 [Example 28] ; value = 2110 nM

// field: IC50; key: O=C(c1cccc(Cl)c1-n1nccn1)N1CCOC[C@H]1Cc1cc(-c2ncon2)ccc1F [Example 180] ; value = 830 nM

// field: IC50; key: C[C@@H]1CN(C(=O)c2ccccc2-n2nccn2)[C@H](Cc2cc(-n3nccn3)ccc2F)CO1 [Example 116] ; value = 899 nM

// field: IC50; key: Cc1cccc(C(=O)N2CCOC[C@H]2Cc2cc(Cl)cc(-n3nccn3)c2)c1-n1nccn1 [Example 106] ; value = 335 nM

// field: IC50; key: Cc1ccc(-n2nccn2)cc1C[C@@H]1COCCN1C(=O)c1cccc(C)c1-n1nccn1 [Example 124] ; value = 997 nM

// field: IC50; key: Cc1ccc(-n2nccn2)c(C(=O)N2CCOC[C@H]2Cc2cccc(-c3cccs3)c2)c1 [Example 45] ; value = 119 nM

// field: IC50; key: O=C(c1ccc(C(F)(F)F)cc1-n1nccn1)N1CCOC[C@H]1Cc1cccc(-n2nccn2)c1 [Example 76] ; value = 133 nM

// field: IC50; key: Cc1ccc(-n2nccn2)c(C(=O)N2CCOC[C@H]2Cc2cccc(-n3cncn3)c2)c1 [Example 23] ; value = 4780 nM
